# TARGET OR TEST SYSTEM: TLR8 (Homo sapiens)
# Sequence (Q9NR97 27-1041): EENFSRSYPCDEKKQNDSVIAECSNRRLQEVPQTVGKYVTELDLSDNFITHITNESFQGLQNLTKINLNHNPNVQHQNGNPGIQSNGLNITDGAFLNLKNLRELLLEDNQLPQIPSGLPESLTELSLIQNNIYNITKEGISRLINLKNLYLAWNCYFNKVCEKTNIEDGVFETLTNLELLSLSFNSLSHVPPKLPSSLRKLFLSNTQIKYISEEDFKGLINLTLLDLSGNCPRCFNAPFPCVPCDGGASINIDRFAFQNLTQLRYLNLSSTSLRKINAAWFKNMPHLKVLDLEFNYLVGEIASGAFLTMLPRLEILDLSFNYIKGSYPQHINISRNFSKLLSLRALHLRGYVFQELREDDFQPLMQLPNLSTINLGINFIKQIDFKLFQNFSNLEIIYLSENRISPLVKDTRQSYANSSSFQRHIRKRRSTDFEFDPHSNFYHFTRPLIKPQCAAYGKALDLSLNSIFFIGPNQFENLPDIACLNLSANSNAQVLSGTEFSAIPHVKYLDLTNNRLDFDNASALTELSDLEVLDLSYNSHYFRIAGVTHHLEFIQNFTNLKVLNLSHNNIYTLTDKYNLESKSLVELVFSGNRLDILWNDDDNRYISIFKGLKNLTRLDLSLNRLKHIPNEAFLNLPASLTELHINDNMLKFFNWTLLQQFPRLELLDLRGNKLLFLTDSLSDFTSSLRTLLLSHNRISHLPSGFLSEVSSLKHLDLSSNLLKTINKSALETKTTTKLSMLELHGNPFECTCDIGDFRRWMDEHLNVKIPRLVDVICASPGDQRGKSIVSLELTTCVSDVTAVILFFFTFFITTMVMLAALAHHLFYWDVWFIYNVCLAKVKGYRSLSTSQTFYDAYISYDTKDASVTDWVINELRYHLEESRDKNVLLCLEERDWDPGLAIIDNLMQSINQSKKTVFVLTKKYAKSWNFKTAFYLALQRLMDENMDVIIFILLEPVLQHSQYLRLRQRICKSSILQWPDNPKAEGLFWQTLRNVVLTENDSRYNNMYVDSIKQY
# ASSAY COMMENT: HEK-TLR8 NF-κB-luciferase reporter, R848 or Motolimod stimulation (potentiation or inhibition)
# Assay type: cell-based
# Parameters: expressed in transfected cells; host or cells: 293XLhTLR8 (HEK293)
# CONDITION PARAMETERS: MOE-modified ASO at 500 nM; averaged NF-κB-Luciferase relative to R848 condition (fold increase)
Tick fulfilled if TLR8 500 nM is 2 or greater. Tick not fulfilled if TLR8 500 nM is less than 2.

Solved cases below.
[
  {
    "ENTRY SEQUENCE": "CAATGTGATGGCCTCCCATC (antisense; 2'-MOE modified, pattern not given here) [HPRT-335 MOE]",
    "CLASS": "not fulfilled"
  },
  {
    "ENTRY SEQUENCE": "GCGACTATACGCGCAATATG (antisense; 2'-MOE modified, pattern not given here) [NC5 2′MOE]",
    "CLASS": "not fulfilled"
  },
  {
    "ENTRY SEQUENCE": "GCTGACAAAGATTCACTGGT (antisense; 2'-MOE modified, pattern not given here) [HPRT-1353 MOE]",
    "CLASS": "fulfilled"
  },
  {
    "ENTRY SEQUENCE": "CTCTTGAAGCATCGTATCAC (antisense; 2'-MOE modified, pattern not given here) [CTNN2B-3648 MOE]",
    "CLASS": "fulfilled"
  },
  {
    "ENTRY SEQUENCE": "TGTCTTCATCGGCCCTGCCT (antisense; 2'-MOE modified, pattern not given here) [CAMSAP1-2112 MOE]",
    "CLASS": "not fulfilled"
  },
  {
    "ENTRY SEQUENCE": "TTCTGCAGCTTCCTTGTCCT (antisense; 2'-MOE modified, pattern not given here) [CTNN2B-2136 MOE]",
    "CLASS": "fulfilled"
  }
]

Now turn to the next sequence.
Does GGTTTTGGCTGGGATCAAGT (antisense; 2'-MOE modified, pattern not given here) [CAMSAP1-4697 MOE] have a reported TLR8 500 nM of at least 2? fulfilled
